These data points were gathered from patent EP4458830A1.

- Experimental Target: human TLR8 (Homo sapiens, UniProt Q9NR97)
- Construct: that the line is stably transfected with the human TLR8 gene is own knowledge of the vendor's product)
- Sequence (Q9NR97 27-1041): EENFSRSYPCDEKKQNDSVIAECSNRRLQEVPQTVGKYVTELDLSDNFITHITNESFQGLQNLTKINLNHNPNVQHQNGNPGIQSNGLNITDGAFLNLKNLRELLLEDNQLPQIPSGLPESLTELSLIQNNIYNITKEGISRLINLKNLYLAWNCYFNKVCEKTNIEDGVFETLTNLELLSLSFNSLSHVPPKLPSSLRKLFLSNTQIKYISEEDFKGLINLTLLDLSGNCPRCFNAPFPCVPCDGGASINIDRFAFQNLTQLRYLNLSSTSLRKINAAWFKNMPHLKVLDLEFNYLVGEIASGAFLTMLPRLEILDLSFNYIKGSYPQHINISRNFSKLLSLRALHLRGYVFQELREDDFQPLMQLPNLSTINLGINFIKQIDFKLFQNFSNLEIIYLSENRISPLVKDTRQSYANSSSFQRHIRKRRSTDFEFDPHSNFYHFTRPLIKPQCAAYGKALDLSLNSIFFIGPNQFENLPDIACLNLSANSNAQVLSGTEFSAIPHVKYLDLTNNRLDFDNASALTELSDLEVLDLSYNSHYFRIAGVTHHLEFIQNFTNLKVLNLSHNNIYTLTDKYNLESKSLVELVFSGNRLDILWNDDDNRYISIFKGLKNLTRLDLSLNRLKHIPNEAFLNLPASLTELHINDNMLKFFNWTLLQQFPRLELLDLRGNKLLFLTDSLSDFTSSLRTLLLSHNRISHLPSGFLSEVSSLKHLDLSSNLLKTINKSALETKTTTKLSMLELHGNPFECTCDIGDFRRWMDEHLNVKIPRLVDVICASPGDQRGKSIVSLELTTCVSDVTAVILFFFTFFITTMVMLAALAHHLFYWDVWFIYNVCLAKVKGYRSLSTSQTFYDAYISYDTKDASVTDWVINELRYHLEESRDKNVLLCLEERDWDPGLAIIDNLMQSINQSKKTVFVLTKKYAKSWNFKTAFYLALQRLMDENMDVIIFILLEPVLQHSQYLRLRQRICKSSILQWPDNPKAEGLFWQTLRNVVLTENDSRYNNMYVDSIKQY
- Assay: Agonistic activity of compounds on HEK-Blue hTLR8 cells (QUANTI-Blue reporter, OD620)
- Condition Label: HEK-Blue hTLR8 cells, 20 hours incubation
- Experimental: • 1. HEK-Blue hTLR8 cells (Invivogen) were cultured in DMEM medium (Hyclone) containing 10% FBS heat-inactivated fetal bovine serum (Corning). […] 10 µL of cell culture supernatant was transferred to a new 96-well transparent plate, added with 90 µL of QUANTI-Blue (Invivogen) detection reagent to each well, incubated at 37°C for 3 hours, and OD620 was read with a multifunctional microplate reader (BMG LABTECH). • 4. […]

| Smiles | EC50 |
| --- | --- |
| CCCCc1nc2c(N)nc3ccsc3c2n1CCCCN | 8.83 µM |
| CCCCc1nc2c(N)nc3ccsc3c2n1CC1CCN(C)CC1 | 11.9 µM |
| CCCCc1nc2c(N)nc3cc(C4CCN(C)CC4)sc3c2[nH]1 | 15.3 µM |
| CCCCc1nc2c(N)nc3cc(C4CCNCC4)sc3c2n1CC1CCOCC1 | 18.9 µM |
| CCCCc1nc2c(N)nc3cc(C)sc3c2n1CC1CCNCC1 | 19.4 µM |
| CCCCc1nc2c(N)nc3cc(C)sc3c2n1CCCCN | 5.83 µM |
